Readings of normalized growth for the listed compounds
test: chemical genetic growth profiling, strain panel (AID 1159580);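 note: tested at 20 µM; growth read once vehicle control cultures reached saturation at 30 °C; 1 = growth at the plate median or of vehicle wells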; details: S. cerevisiae deletion strains, growth OD, locus YNL298W, strain CLA4, stronger effect = lower value
Among all 5,500 compounds or so, about 2,000 (36%) were called active. About 18% were inconclusive and are not listed. The list shows a part of the results.
MEASURED_METRIC: normalized growth

* CC1(C)C(=O)C=C[C@@]2(C)C1CC(=O)[C@@]1(C)C3=CC(=O)O[C@@H](c4ccoc4)[C@]3(C)CCC12 (some centres undefined) | 0.987
* OC1=Cc2c(O)cc(O)cc2OC1(O)c1ccc(O)c(O)c1 (centres undefined) | 0.986
* CN(C(=O)CN(CCO)CC(=O)N(C)C(C)(C)Cc1ccccc1)C(C)(C)Cc1ccccc1 | 0.983
* COc1cc(S(C)=O)ccc1-c1nc2ncccc2[nH]1 (centres undefined) | 0.971

----------
test: chemical genetic growth profiling, strain panel (AID 1159580); conditions: S. cerevisiae deletion strains, growth OD, locus YMR219W, strain ESC1
The whole screen tested about 5,500 compounds, of which about 2,000 (36%) were called active. Roughly 18% stayed inconclusive and do not appear here. No stated cut-off is given here; in the data, active means normalized growth mostly below about 0.91 (no sharp cut-off); inconclusive means no clear call, values can overlap the other calls; inactive means mostly above about 0.92. Some of the results follow.
Possible outcomes: class 1 = active, class 0 = inactive

• CSC(=NC(=O)c1c(Cl)cccc1Cl)SC = class 1
• Cc1cc(NS(=O)(=O)c2ccc(NS(=O)(=O)c3cc(C)c(Cl)cc3C)cc2)no1 = class 0
• CC(=O)Nc1ccc(C(F)(F)F)cc1Br = class 0

----------
Property: normalized growth; scope: individual molecules
experiment: chemical genetic growth profiling, strain panel (AID 1159580); conditions: S. cerevisiae deletion strains, growth OD, locus YNL197C, strain WHI3, stronger effect = lower value
The whole screen tested about 5,500 compounds, of which about 2,000 (36%) were called active. Another 18% or so got no clear call; they are omitted. Some of the results follow.
MEASURED_METRIC: normalized growth

• Clc1ccc2c(c1)C(N1CCNCC1)=Nc1ccccc1O2 = 1.01
• CN1C[C@H](CNC(=O)OCc2ccccc2)C[C@@H]2c3cccc4c3c(cn4C)C[C@H]21 = 0.994
• Cc1[nH]c(=O)c(C#N)cc1-c1ccncc1 = 1.01
• O=[N+]([O-])c1cccc2c(Br)[nH]nc12 = 1.01
• CCS(=O)(=O)Nc1cccc(C(=C2CCCCC2)c2cnc[nH]2)c1 = 1
• CCCC(C(=O)OCCN(CC)CC)(c1ccccc1)c1ccccc1 = 1.01
• O=c1cc(-c2ccc(O)cc2)oc2cc(O)cc(O)c12 = 0.981
• CC(N)=O = 1
• O=[N+]([O-])c1cccc2cn[nH]c12 = 0.992

----------
experiment: chemical genetic growth profiling, strain panel (AID 1159580); settings: S. cerevisiae deletion strains, growth OD, locus YLR330W, strain CHS5, stronger effect = lower value
The whole screen tested about 5,500 compounds, of which about 2,000 (36%) were called active. Not shown: some 18% with an inconclusive outcome. Some of the results follow.
MEASURED_METRIC: normalized growth

* COC(=O)CCCOc1ccc(Cl)cc1Cl | 0.991
* Nc1cc(-c2ccncc2)c[nH]c1=O | 0.878
* C[C@@H]1CC2C3C[C@H](F)C4=CC(=O)C=C[C@]4(C)[C@@]3(F)[C@@H](O)C[C@]2(C)[C@@]1(O)C(=O)COC(=O)C(C)(C)C (stereo partly specified) | 1.01
* NC(N)=NCCCC(NC(=O)C(N)Cc1ccc(O)cc1)C(=O)O (stereo unspecified) | 0.988
* CN(C)CCOC(=O)C(c1ccccc1)C1(O)CCCC1 (stereo unspecified) | 1
* COc1c2ccccc2nc2occc12 | 0.917

----------
assay: chemical genetic growth profiling, strain panel (AID 1159580); settings: S. cerevisiae deletion strains, growth OD, locus YMR058W, strain fet3, stronger effect = lower value
Out of some 5,500 compounds screened, about 2,000 (36%) were called active. Not shown: some 18% with an inconclusive outcome. The list shows a part of the results.
MEASURED_METRIC: normalized growth

• O=C(O)CCC(=O)Nc1ccc(S(=O)(=O)Nc2nccs2)cc1 = 1
• CCCCC[C@H](CC(=O)NO)C(=O)N[C@H](C(=O)N1CCC[C@H]1CO)C(C)C = 1.01
• O=C(O)CCCOc1ccc(Cl)cc1Cl = 0.947
• N[C@@H]1[C@@H](O)[C@H](O)[C@@H](CO)O[C@H]1O = 1.02
• S=P(N1CC1)(N1CC1)N1CC1 = 1.02
• CCCC(CCC)C(=O)O = 1.01
• CC(=O)Nc1ccccc1 = 0.976
• CC(=O)O[C@H]1C[C@@H](OC(C)=O)C(C)(C)C2CC(=O)[C@]3(C)C(CC[C@@]4(C)[C@H](c5ccoc5)OC(=O)[C@H]5O[C@]543)[C@]21C (stereo not given in full) = 0.978
• CCCCS(=N)(=O)CCC(N)C(=O)O (stereo not given) = 0.999
• O=[N+]([O-])c1cccc2c(Br)[nH]nc12 = 0.942
• NC(N)=O = 1.02
• NCC(CC(=O)O)c1ccc(Cl)cc1 (stereo not given) = 1.02
• N#C/C(=C\c1cccc(O)c1)C(=O)O = 0.997
• CCOC(=O)[C@H](CCc1ccccc1)N[C@@H](C)C(=O)N1Cc2ccccc2C[C@H]1C(=O)O = 1.01
• C=C[C@H]1CN2CC[C@H]1C[C@@H]2[C@H](O)c1ccnc2ccccc12 = 0.982

----------
assay: chemical genetic growth profiling, strain panel (AID 1159580);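 note: tested at 20 µM; growth read once vehicle control cultures reached saturation at 30 °C; 1 = growth at the plate median or of vehicle wells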; conditions: S. cerevisiae deletion strains, growth OD, locus YER133W, strain GLC7
Hit rate of the full screen: of about 5,500 compounds, about 2,000 (36%) were called active. Another 18% or so got no clear call; they are omitted. No stated cut-off is given here; in the data, active means normalized growth mostly below about 0.91 (no sharp cut-off); inconclusive means no clear call, values can overlap the other calls; inactive means mostly above about 0.92. The list shows a part of the results.
Possible outcomes: active, inactive

* O=C1CSC(c2ccc(C(F)(F)F)cc2)N1c1ccc(C(F)(F)F)cc1 (stereo unspecified) | inactive
* N#Cc1ccc(NC(=O)Nc2cccc3ccccc23)cc1 | inactive
* Cc1c(S(=O)(=O)c2ccc(Cl)cc2)csc1C(=O)NNc1cccc(Cl)c1 | inactive
* O=C(CCn1c(=O)oc2ccccc21)Sc1ccc(Cl)cc1Cl | active
* O=[N+]([O-])c1ccc(-c2csc(Nc3ccncc3)n2)cc1 | inactive
* O=C1/C(=C/c2ccc(C(F)(F)F)cc2)COc2ccccc21 | inactive
* CNC(=O)n1nc(C)c(Cc2csc3ccc(Cl)cc23)c1C | inactive
* CS(=O)(=O)/C(C#N)=C/c1ccccc1OCc1c(Cl)cccc1Cl | inactive
* COc1cc(CC/C(C)=N\O)ccc1OCc1ccc(Cl)c(Cl)c1 | inactive
* COc1ccc(CC2CCC(=NOC(=O)c3c(Cl)cccc3Cl)CC2)cc1 (stereo unspecified) | inactive
* Cc1nn(Cc2nnc(SCc3cccc(C(F)(F)F)c3)o2)c(C)c1Br | inactive
* NNC(=O)c1csc(Cc2c(Cl)sc3ccc(Cl)cc23)n1 | inactive
* Cc1ccc(N2C(=O)CSC2c2ccc(Cl)c(Cl)c2)cc1Cl (stereo unspecified) | inactive
* O=C(Nc1ccc(Cl)cc1)O/N=C\c1ccn(-c2ccccc2)n1 | inactive
* O=C(Nc1cccc2ccccc12)c1ccccc1O | active
* CC1C/C(=N/Nc2ccc(Br)cc2)c2cc(Cl)ccc2S1(=O)=O (stereo unspecified) | inactive

----------
Measured normalized growth accompanies every entry in the list below.
assay: chemical genetic growth profiling, strain panel (AID 1159580);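 note: tested at 20 µM; growth read once vehicle control cultures reached saturation at 30 °C; 1 = growth at the plate median or of vehicle wells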; conditions: S. cerevisiae deletion strains, growth OD, locus YNL271C, strain bni1, stronger effect = lower value
About 2,000 (36%) of roughly 5,500 compounds were called active. Not shown: some 18% with an inconclusive outcome. The list shows a part of the results.
MEASURED_METRIC: normalized growth

- c1ccc2c(c1)CN1CCCC1=N2: 0.989
- CN1CCN(C2=Nc3ccccc3Oc3ccc(Cl)cc32)CC1: 0.988
- N[C@@H](Cc1cc(I)c(Oc2ccc(O)c(I)c2)c(I)c1)C(=O)O: 0.995

----------
test: chemical genetic growth profiling, strain panel (AID 1159580);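 note: tested at 20 µM; growth read once vehicle control cultures reached saturation at 30 °C; 1 = growth at the plate median or of vehicle wells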; settings: S. cerevisiae deletion strains, growth OD, locus YPL051W, strain arl3
The campaign covered roughly 5,500 compounds. About 2,000 (36%) were called active. Not shown: some 18% with an inconclusive outcome. Rule as the data show it: active = normalized growth mostly below about 0.91 (no sharp cut-off); inconclusive = no clear call, values can overlap the other calls; inactive = mostly above about 0.92. Some of the results follow.
Labels: active, inactive

• CNCCCN1c2ccccc2CCc2ccccc21 = inactive
• NNCCc1ccccc1 = inactive
• N#C/C(=C\c1cccc(O)c1)C(=O)O = inactive
• C[C@H](N)[C@H](O)c1cccc(O)c1 = inactive
• COc1ccc(C(=O)N2CCCC2=O)cc1 = inactive
• COc1c2ccoc2nc2c(OC)c(OCC(O)C(C)(C)O)ccc12 (configuration not stated) = inactive
• Cc1cc(C)cc(OCC2CNC(=O)O2)c1 (configuration not stated) = inactive
• CC(CN(C)C)CN1c2ccccc2Sc2ccccc21 (configuration not stated) = inactive
• O=c1cc(-c2cc(O)c(O)c(O)c2)oc2cc(O)cc(O)c12 = inactive
• COc1ccc(C(=O)CC(=O)c2ccc(C(C)(C)C)cc2)cc1 = inactive
• CCCCCC1C(=O)CCC1CC(=O)OC (configuration not stated) = inactive
• O=c1cc(-c2ccccc2)oc2cc(O)c(O)cc12 = inactive
• C[C@@H]1O[C@@H](O[C@H]2C[C@@H](O)[C@]3(CO)C4C(CC[C@]3(O)C2)[C@@]2(O)CC[C@H](C3=CC(=O)OC3)[C@@]2(C)C[C@H]4O)[C@H](O)[C@H](O)[C@H]1O (some centres not stated) = inactive
• Cc1cc(=O)oc2c(O)c(O)ccc12 = inactive
• COc1cc(S(C)=O)ccc1-c1nc2ncccc2[nH]1 (configuration not stated) = inactive
• CNC(=O)Oc1ccc2c(c1)[C@]1(C)CCN(C)[C@@H]1N2C = inactive
• COc1c(Cl)ccc(Cl)c1C(=O)O = inactive
• O=c1cc(-c2ccccc2)oc2c(O)c(O)ccc12 = inactive
• CN(C(=O)CN(CCO)CC(=O)N(C)C(C)(C)Cc1ccccc1)C(C)(C)Cc1ccccc1 = inactive
• COc1c2ccccc2nc2occc12 = active
• COc1cc(C)c(C(=O)Oc2cc(C)c(C(=O)O)c(O)c2C)c(OC)c1C = inactive
• Nc1ccn(C2O[C@H](CO)[C@@H](O)[C@H]2O)c(=O)n1 (some centres not stated) = inactive
• O=[N+]([O-])c1cccc2c(Br)[nH]nc12 = active
• Cc1cc(O)c(C=O)c2c1C(=O)Oc1c(COC(=O)/C=C/C(=O)O)c(O)c(C(=O)O)c(C)c1O2 = active
• C/C=C/C(=O)N(CC)c1ccccc1C = inactive
• c1ccc2c(c1)CN1CCCC1=N2 = inactive
• Cc1nc2ccccn2c(=O)c1CCN1CCC(C(=O)c2ccc(F)cc2)CC1 = inactive
• CC1=C2[C@H]3OC(=O)[C@@H](C)[C@@H]3CC[C@@]2(C)C=CC1=O = inactive
• C=Cc1c(C)c2[n-]c1=Cc1[n-]c(c(CC)c1C)C=c1[n-]c3c(c1C)C(=O)C(C(=O)[O-])C=3c1[n-]c(c(C)c1CCC(=O)[O-])C=2.[Cu] (configuration not stated) = inactive
• O=C(Nc1ccccc1)Nc1ccccc1 = inactive
• O=c1[nH]cnc2[nH]ncc12 = inactive
• CC(=O)O[C@H]1C[C@@H](OC(C)=O)C(C)(C)C2CC(=O)[C@]3(C)C(CC[C@@]4(C)[C@H](c5ccoc5)OC(=O)[C@H]5O[C@]543)[C@]21C (some centres not stated) = inactive
• C[C@@H]1CC2C3CCC4=CC(=O)C=C[C@]4(C)[C@@]3(F)[C@@H](O)C[C@]2(C)[C@H]1C(=O)CO (some centres not stated) = inactive
• Nc1cc(C(Cl)=C(Cl)Cl)c(S(N)(=O)=O)cc1S(N)(=O)=O = inactive
• Nc1ccncc1 = inactive
• C[C@@H]1CC2C3C[C@H](F)C4=CC(=O)C=C[C@]4(C)[C@@]3(F)[C@@H](O)C[C@]2(C)[C@@]1(O)C(=O)COC(=O)C(C)(C)C (some centres not stated) = inactive
• COc1cc([C@H]2Oc3cc([C@H]4Oc5cc(O)cc(O)c5C(=O)[C@@H]4O)ccc3O[C@@H]2CO)ccc1O = inactive
• O=[N+]([O-])c1cccc2cn[nH]c12 = inactive
• Clc1ccc2c(c1)C(N1CCNCC1)=Nc1ccccc1O2 = inactive
• O=c1cc(-c2ccc(O)cc2)oc2cc(O)ccc12 = inactive
• CC(CN(C)C)CN1c2ccccc2CCc2ccccc21 (configuration not stated) = inactive
• CN(C)N=Nc1nc[nH]c1C(N)=O = inactive
